These measurements were taken from patent US6905852B1.

target: protoporphyrinogen oxidase extracted from the sensitive cell line (Nicotiana tabacum, UniProt O24163, A174P/A191P/T382S); construct: crude particulate fraction; experiment: Protoporphyrinogen oxidase activity of crude enzyme preparation
Sequence (O24163 51-548 A174P/A191P/T382S): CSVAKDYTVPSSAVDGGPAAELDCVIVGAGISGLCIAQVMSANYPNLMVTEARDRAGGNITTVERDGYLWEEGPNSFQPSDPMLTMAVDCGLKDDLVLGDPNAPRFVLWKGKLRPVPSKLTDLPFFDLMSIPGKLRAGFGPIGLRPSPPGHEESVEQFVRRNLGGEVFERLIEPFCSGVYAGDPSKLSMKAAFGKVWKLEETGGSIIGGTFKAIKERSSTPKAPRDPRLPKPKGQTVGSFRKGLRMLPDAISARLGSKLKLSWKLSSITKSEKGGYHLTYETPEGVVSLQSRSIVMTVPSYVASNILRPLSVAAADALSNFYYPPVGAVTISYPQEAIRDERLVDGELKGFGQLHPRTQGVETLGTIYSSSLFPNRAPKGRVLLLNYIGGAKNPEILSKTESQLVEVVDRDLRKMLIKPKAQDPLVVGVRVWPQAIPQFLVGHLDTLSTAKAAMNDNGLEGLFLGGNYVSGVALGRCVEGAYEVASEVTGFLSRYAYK
QUANTITY: IC50 (nM)
Numbers only, in nM.

Please report the recorded IC50 for CCOC(=O)COc1cc(-c2nn(C)c(OC(F)F)c2Cl)c(F)cc1Cl [Compound A] . 48

---

molecular target: protoporphyrinogen oxidase extracted from ETR-245 (Nicotiana tabacum, UniProt O24163, A231V); construct: from tissue; host or cells: tobacco callus, herbicide-tolerant cell line ETR-245; crude particulate fraction; assay: Protoporphyrinogen oxidase activity of crude enzyme preparation; assay type: biochemical; conditions: IC50 value (nM), crude enzyme from ETR-245
Sequence (O24163 51-548 A231V): as the sequence (O24163 51-548 A174P/A191P/T382S) above, with P124A, P141A, A181V, S332T counted along it
QUANTITY: IC50

Please report the recorded IC50 for CCOC(=O)COc1cc(-c2nn(C)c(OC(F)F)c2Cl)c(F)cc1Cl [Compound A] . ≥ 5000 nM

---

Tested on: E. coli SASX38 strain having pCR-RC with tobacco resistant type protoporphyrinogen oxidase gene
Experiment: Growth inhibition of E. coli SASX38 (liquid culture with shaking)
Assay type: cell-based, Nicotiana tabacum
Conditions: Resistant type/Wild type
Description: The E. coli SASX38 strain containing either of the above-described two kinds of plasmid was cultured with shaking in LB liquid medium containing 50 μg/ml of ampicillin at 28° C. for overnight.
QUANTITY: R/S b) Tobacco

CCOC(=O)C(C)Nc1cc(-c2nn(C)c(OC(F)F)c2Cl)c(Cl)cc1Cl (stereo not drawn) [Comp.B] | 9,100

List reported R/S b) Tobacco for each of these compounds:
1. C#CCOc1cc(-c2nn(C)c(OC(F)F)c2Cl)c(F)cc1Cl [Comp.D]
2. Cn1nc(-c2ccc(Cl)cc2F)c(Cl)c1OC(F)F [Comp.G]
3. COc1cc(-c2nn(C)c(OC(F)F)c2Cl)c(F)cc1Cl [Comp.C]

1. 25,000
2. 5,500
3. 8,800

List reported R/S b) Tobacco for each of these compounds:
1. CC(C)OC(=O)c1cc(-c2nn(C)c(C(F)(F)F)c2Br)c(F)cc1Cl [Comp.F]
2. CCOC(=O)C(C)Oc1cc(-c2nn(C)c(OC(F)F)c2Cl)c(F)cc1Cl (stereo not drawn) [Comp.E]

["4,700", "12,000"]

---

target: E. coli SASX38 strain having pCR-HC with tobacco wild type protoporphyrinogen oxidase cDNA (Nicotiana tabacum); construct: expressed in transfected cells; host or cells: E. coli SASX38 (hemG-deficient) carrying pCR-HC; assay: Growth inhibition of E. coli SASX38 (liquid culture with shaking); assay type: cell-based; settings: E. coli liquid culture method with shaking; read-out: I50 (nM) Tobacco Wild
Sequence (O24163 51-548): as the sequence (O24163 51-548 A174P/A191P/T382S) above, with P124A, P141A, S332T counted along it
QUANTITY: IC50 (nM)
One number for each entry, in nM.

Please report the recorded IC50 for CC(C)OC(=O)c1cc(-c2nn(C)c(C(F)(F)F)c2Br)c(F)cc1Cl [Comp.F] . 3.2

---

Provide the reported R/S a) Arabidopsis thaliana of each item.
target: E. coli SASX38 strain having pBAtPX-RC with Arabidopsis thaliana resistant type protoporphyrinogen oxidase cDNA (Arabidopsis thaliana, UniProt P55826, A220V); construct: expressed in transfected cells; host or cells: E. coli SASX38 (hemG-deficient) carrying pBAtPX-RC (pBluescript SK(-)); experiment: Growth inhibition of E. coli SASX38 (liquid culture with shaking); type: cell-based; conditions: Resistant type/Wild type
Sequence (P55826 35-537 A220V): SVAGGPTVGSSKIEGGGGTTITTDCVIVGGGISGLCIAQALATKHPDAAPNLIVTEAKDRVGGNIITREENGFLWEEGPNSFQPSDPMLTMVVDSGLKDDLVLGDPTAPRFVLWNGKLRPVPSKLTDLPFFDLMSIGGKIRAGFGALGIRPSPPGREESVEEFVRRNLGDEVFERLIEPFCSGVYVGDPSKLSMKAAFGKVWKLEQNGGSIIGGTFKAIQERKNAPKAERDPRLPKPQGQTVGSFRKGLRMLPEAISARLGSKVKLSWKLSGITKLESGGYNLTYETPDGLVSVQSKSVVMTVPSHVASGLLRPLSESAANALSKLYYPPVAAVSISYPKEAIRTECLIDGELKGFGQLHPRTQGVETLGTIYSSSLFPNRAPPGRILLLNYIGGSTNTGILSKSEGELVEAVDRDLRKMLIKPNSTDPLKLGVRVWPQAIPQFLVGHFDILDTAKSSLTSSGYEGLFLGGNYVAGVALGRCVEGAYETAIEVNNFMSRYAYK
Answers are plain numbers.

Would you please look over these solved cases?
CCOC(=O)C(C)Nc1cc(-c2nn(C)c(OC(F)F)c2Cl)c(Cl)cc1Cl (stereo not drawn) [Comp.B] | 860
COc1cc(-c2nn(C)c(OC(F)F)c2Cl)c(F)cc1Cl [Comp.C] | 600

List reported R/S a) Arabidopsis thaliana for each of these molecules:
1. Cn1nc(-c2ccc(Cl)cc2F)c(Cl)c1OC(F)F [Comp.G]
2. CCOC(=O)C(C)Oc1cc(-c2nn(C)c(OC(F)F)c2Cl)c(F)cc1Cl (stereo not drawn) [Comp.E]
3. CC(C)OC(=O)c1cc(-c2nn(C)c(C(F)(F)F)c2Br)c(F)cc1Cl [Comp.F]

1: 460; 2: 950; 3: 280
